Recorded values, source ChEMBL document CHEMBL2331366.

- Test system: Vibrio parahaemolyticus
- measurement_notes: Antibacterial activity against Vibrio parahaemolyticus ATCC 17802 assessed as growth inhibition
- Assay type: functional
value_kind: MIC

Below are worked cases with known answers.
{"smiles_record": "COc1cc(C)cc(Oc2cc(C)cc(OC)c2OC)c1O", "MIC": "> 100 µM"}
{"smiles_record": "CC1(C)C=Cc2c(ccc3c4c([nH]c23)C(C)(C)[C@@H]2C[C@]35CCCN3C(=O)[C@@]2(C4)NC5=O)O1", "MIC": "> 100 µM"}

Proceeding to the next compound to report its MIC.
Prompt: What value of measured MIC is listed for COc1cc(C)cc(Oc2cc(C)cc(OC)c2O)c1O ?
Response: > 100 µM
